Assay: qHTS for Stage-Specific Inhibitors of Vaccinia Orthopoxvirus: Venus Reporter Primary qHTS; note: nearly all actives have a fitted effect of over 30% in size; note: potency is the fitted concentration of half-maximal effect
Conditions: Vaccinia virus Venus reporter expression, fluorescence; series mostly up to 36.5 µM
Out of some 330,000 compounds screened, about 1,500 (0.45%) were called active. About 6% were inconclusive and are not listed. The sample as a whole holds a higher share of actives than the screen did.
ASSAY ENDPOINT: Potency

Some entries whose results are on file:
COMPOUND	RESULT
O=S1(=O)CC(N2CCN(c3ccccn3)CC2)CN1Cc1ccc(F)cc1 (stereo unspecified)	inactive
COc1ccc(C(NC(=O)C2CCN(CCCc3ccccc3)CC2)c2cccs2)cc1 (stereo unspecified)	inactive
O=C(Nc1ccccc1)c1ccccc1OCc1ccccc1	inactive
CCCCCc1c(Cc2ccccc2)ncn1CCc1ccccc1OC	1.41 µM (active)
COc1cccc(-c2nc(Nc3ccncc3)c3ccccc3n2)c1	inactive
Nc1nc(SCc2ccc([N+](=O)[O-])cc2)c2ncn(C3OC(CO)C(O)C3O)c2n1 (stereo unspecified)	inactive

INPUT: What value of Potency has been reported for the following compound? CC(C)Sc1nc(N)nc2c1ncn2C1OC(CO)C(O)C1O (stereo unspecified)
OUTPUT: inactive

INPUT: What value of Potency has been reported for the following compound? COc1cc2nc(N3CCCN(C)CC3)nc(NC3CC3)c2cc1OC
OUTPUT: inactive

INPUT: What value of Potency has been reported for the following compound? CCN(CC)c1ccc(/C=C/c2c(C)cnc3ccc(C)cc23)cc1
OUTPUT: inactive

INPUT: What value of Potency has been reported for the following compound? O=[N+]([O-])c1ccc(F)cc1Oc1nc(-c2cccnc2)nc2ccccc12
OUTPUT: 5.01 µM (active)

INPUT: What value of Potency has been reported for the following compound? CCCCCc1c(-c2ccc(OC)c(OC)c2)ncn1CCc1ccccc1OC
OUTPUT: inactive
